- testName: Fraction unbound in rat plasma
- Format: ADME, cell-free
parameter: fraction unbound
Please state the value as a number alone, without comment.

Q: Reported fraction unbound, molecule `CCn1cc2c(Oc3cnc(C(=O)N4CCC4)c(F)c3)cc(C(=O)Nc3cnc(C)cn3)cc2n1` : ____
A: 0.18

----------
- testName: Half life in Wistar-Han rat at 1 mg/kg, iv
- Type: ADME, organism-based
- Parameters: dose 1 mg/kg, route intravenous
- conditionSet: in vivo
parameter: half-life (h)
Hi! Could you send only the number? It should be in h, unit omitted.

Q: Give its half-life value. Item: `CCn1cc2c(Oc3cnc(C(=O)N4CCC4)c(F)c3)cc(C(=O)Nc3cnc(C)cn3)cc2n1`
A: 1

----------
- testName: Half life in Wistar-Han rat at 5 mg/kg, po
- Format: ADME, organism-based
- Design: dose 5 mg/kg, route oral
- conditionSet: in vivo
parameter: half-life (h)
Just the number in h, nothing appended.

Q: Give the measured half-life of `CCn1cc2c(Oc3cnc(C(=O)N4CCC4)c(F)c3)cc(C(=O)Nc3cnc(C)cn3)cc2n1` .
A: 2.6

----------
- testName: Passive permeability of the compound in dog RRCK cells
- Type: ADME, cell-based, Canis lupus familiaris, MDCKII-LE
- conditionSet: MDCK, read-out: permeability
Catalogue of Papp readings, one per entry.
Return type: number; implicit unit ×10⁻⁶ cm/s.

>>> endpointresult("Cc1cnc(NC(=O)c2cc(Oc3ccc(C(=O)N(C)C)cc3)c3cn(C)nc3c2)cn1")
14.6
>>> endpointresult("Cc1cnc(NC(=O)c2cc(Oc3cnc(C(=O)N4CCC4)c(F)c3)c3cn(C)nc3c2)cn1")
11.9
>>> endpointresult("Cc1cnc(NC(=O)c2cc(Oc3ccc(S(=O)(=O)C4CC4)cc3)c3cn(C)nc3c2)cn1")
17.8

Q: So what's the measured Papp for this one? `CCn1cc2c(Oc3cnc(C(=O)N(C)C)c(F)c3)cc(C(=O)Nc3cnc(C)cn3)cc2n1`
A: 13.8

Q: Name the reported Papp value associated with the molecule `Cc1cnc(NC(=O)c2cc(Oc3cnc(C(=O)N(C)C)cn3)c3cc(C)nn3c2)cn1`
A: 17

Q: What value of measured Papp is listed for `Cc1cnc(NC(=O)c2cc(Oc3cnc(C(=O)N(C)C)cn3)c3cn(C)nc3c2)cn1` ?
A: 20.8

Q: Dear colleague, I am looking for the recorded Papp of the following molecule: `CCS(=O)(=O)c1ccc(Oc2cc(C(=O)Nc3cnc(C)cn3)cc3nn(C)cc23)cc1`
A: 10.6

----------
- testName: AUC in Wistar-Han rat at 1 mg/kg, iv
- Assay type: ADME, organism-based
- Set-up: dose 1 mg/kg, route intravenous
- conditionSet: plasma
parameter: AUC (ng·h/mL)
Number in ng·h/mL, nothing else.

Q: Consider the compound `CCn1cc2c(Oc3cnc(C(=O)N4CCC4)c(F)c3)cc(C(=O)Nc3cnc(C)cn3)cc2n1` and give its measured AUC.
A: 1580

----------
- testName: Drug excretion in Wistar-Han rat urine at 1 mg/kg, iv
- Assay type: ADME, organism-based
- Parameters: dose 1 mg/kg, route intravenous
- conditionSet: read-out: Drug excretion
parameter: dose excreted

Q: Item `CCn1cc2c(Oc3cnc(C(=O)N4CCC4)c(F)c3)cc(C(=O)Nc3cnc(C)cn3)cc2n1` has what recorded dose excreted?
A: < 1%
